Entry source: patent US20250276075A1

biological target: Axl (UniProt P30530); assay: ELISA, 1:9 dilution
Sequence (P30530 26-451 limits assumed): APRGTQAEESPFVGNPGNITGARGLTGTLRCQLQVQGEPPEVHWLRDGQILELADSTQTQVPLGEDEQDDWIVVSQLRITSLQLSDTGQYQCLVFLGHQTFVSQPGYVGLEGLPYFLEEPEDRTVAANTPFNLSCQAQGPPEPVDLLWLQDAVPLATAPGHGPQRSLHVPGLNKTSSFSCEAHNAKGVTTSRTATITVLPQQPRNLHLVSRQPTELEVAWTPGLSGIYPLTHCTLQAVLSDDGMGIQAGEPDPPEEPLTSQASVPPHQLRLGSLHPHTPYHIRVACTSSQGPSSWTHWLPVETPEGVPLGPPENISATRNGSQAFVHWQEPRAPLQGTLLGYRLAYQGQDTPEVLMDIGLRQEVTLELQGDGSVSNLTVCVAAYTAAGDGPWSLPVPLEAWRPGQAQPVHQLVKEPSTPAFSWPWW
Here the recorded Affinity ELISA CPE mutant ratio (1:9, pH 6.0/7.4) is given for each entry.
Measured Metric: Affinity ELISA CPE mutant ratio (1:9, pH 6.0/7.4)

binder="HC-Y104P (antibody, V domains shown) VH: EVQLVQSGAEVKKPGATVKISCKVSGYSFTGHTMNWIRQPPGKGLEWIGLIKPSNGGTSYNQKFKGRVTISADKSISTAYLQWSSLKASDTAMYYCAHGHYESPFAMDYWGQGTLVTVSS VL: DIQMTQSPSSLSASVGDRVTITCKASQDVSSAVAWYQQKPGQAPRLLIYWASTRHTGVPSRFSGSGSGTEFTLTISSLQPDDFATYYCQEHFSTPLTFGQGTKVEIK" recorded_result=2.42
binder="HC-T033I (antibody, V domains shown) VH: EVQLVQSGAEVKKPGATVKISCKVSGYSFTGHIMNWIRQPPGKGLEWIGLIKPSNGGTSYNQKFKGRVTISADKSISTAYLQWSSLKASDTAMYYCAHGHYESYFAMDYWGQGTLVTVSS VL: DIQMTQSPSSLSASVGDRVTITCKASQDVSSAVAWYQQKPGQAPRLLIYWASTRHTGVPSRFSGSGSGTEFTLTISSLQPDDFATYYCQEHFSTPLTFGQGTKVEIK" recorded_result=1
binder="LC-L096R (antibody, V domains shown) VH: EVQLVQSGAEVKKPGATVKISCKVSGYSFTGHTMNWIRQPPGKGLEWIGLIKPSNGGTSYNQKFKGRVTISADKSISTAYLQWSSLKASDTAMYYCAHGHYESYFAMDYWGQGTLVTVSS VL: DIQMTQSPSSLSASVGDRVTITCKASQDVSSAVAWYQQKPGQAPRLLIYWASTRHTGVPSRFSGSGSGTEFTLTISSLQPDDFATYYCQEHFSTPRTFGQGTKVEIK" recorded_result=2.18
binder="LC-A051I (antibody, V domains shown) VH: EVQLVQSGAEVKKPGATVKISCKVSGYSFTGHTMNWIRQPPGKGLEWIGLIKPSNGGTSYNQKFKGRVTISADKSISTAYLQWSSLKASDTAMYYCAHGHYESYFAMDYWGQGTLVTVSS VL: DIQMTQSPSSLSASVGDRVTITCKASQDVSSAVAWYQQKPGQAPRLLIYWISTRHTGVPSRFSGSGSGTEFTLTISSLQPDDFATYYCQEHFSTPLTFGQGTKVEIK" recorded_result=2.14
binder="LC-A051N (antibody, V domains shown) VH: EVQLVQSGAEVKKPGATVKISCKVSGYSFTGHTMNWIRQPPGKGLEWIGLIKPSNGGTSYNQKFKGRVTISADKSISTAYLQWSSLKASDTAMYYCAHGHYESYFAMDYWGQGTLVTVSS VL: DIQMTQSPSSLSASVGDRVTITCKASQDVSSAVAWYQQKPGQAPRLLIYWNSTRHTGVPSRFSGSGSGTEFTLTISSLQPDDFATYYCQEHFSTPLTFGQGTKVEIK" recorded_result=2.2
